Recorded Number of Bacteria, E. coli values for a group of compounds are listed next.
Test system: E. coli
TEST_METHOD_NOTES: Antimicrobial activity test with Compounds 1 to 4
Type: cell-based
PROTOCOL_CONDITIONS: 10 ppm in standard agar medium
Report the value in CFU/petri dish with no unit label.

{"COMPOUND": "CC(C)=CCC/C(C)=C/Cc1c([C@@H]2CC(=O)c3c(cc(O)c(CC=C(C)C)c3O)O2)ccc(O)c1O [Compound 4]", "Number of Bacteria, E. coli (CFU/petri dish)": 6}

Next, consider the following compound.
Prompt line: # assay system E. coli: give Number of Bacteria, E. coli of CC(C)=CCC/C(C)=C/Cc1c(O)cc2c(c1O)C(=O)C[C@@H](c1ccc(O)c(O)c1)O2 [Compound 3]
Response line: 1
